Ref: patent US20160002357A1

Biological target: T1, P-cadherin-ECD1-3-Fc protein (human P-cadherin-Fc) (human, UniProt P22223 108-440)
T1 construct: Construct was expressed with signal peptide and pro-peptide (PACE co-transfected to process the propeptide); not shown: hinge and CH2 and CH3 domains of human IgG1
T1 sequence (P22223 108-440): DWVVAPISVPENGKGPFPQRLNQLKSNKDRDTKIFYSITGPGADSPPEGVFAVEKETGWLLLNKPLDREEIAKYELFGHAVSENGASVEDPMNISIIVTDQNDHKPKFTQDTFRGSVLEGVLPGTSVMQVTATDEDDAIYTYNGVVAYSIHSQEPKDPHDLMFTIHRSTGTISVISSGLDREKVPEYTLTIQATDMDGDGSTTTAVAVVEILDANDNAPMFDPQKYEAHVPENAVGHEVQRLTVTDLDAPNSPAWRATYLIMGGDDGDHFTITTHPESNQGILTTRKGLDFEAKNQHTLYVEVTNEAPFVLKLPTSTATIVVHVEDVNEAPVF
Experiment: phage scFv ELISA, coated P-cadherin-ECD1-3-Fc
// Human P-cadherin-Fc binding (OD450) lookup, one value per entry

- binder: "anti-P-cadherin scFv 153 alanine-mutant L1.5-Ala (scFv, V domains shown, scFv on phage) VH: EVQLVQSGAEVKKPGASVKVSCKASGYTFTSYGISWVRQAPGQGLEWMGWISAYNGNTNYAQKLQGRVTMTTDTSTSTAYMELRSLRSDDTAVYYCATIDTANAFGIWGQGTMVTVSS VL: QSVLTQPPSVSAAPGQKVTISCSGSSANIGNNYVSWYQQLPGTAPKLLIYDNNKRPSGIPDRFSGSKSGTSATLGITGLQTGDEADYYCGTWDSSLSGVVFGGGTKLTVL"
  Human P-cadherin-Fc binding (OD450): 1.7
- binder: "anti-P-cadherin scFv 153 alanine-mutant L1.9-Ala (scFv, V domains shown, scFv on phage) VH: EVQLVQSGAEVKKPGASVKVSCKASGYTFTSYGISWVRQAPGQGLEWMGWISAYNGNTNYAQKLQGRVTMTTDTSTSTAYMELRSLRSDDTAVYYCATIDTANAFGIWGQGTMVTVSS VL: QSVLTQPPSVSAAPGQKVTISCSGSSSNIGANYVSWYQQLPGTAPKLLIYDNNKRPSGIPDRFSGSKSGTSATLGITGLQTGDEADYYCGTWDSSLSGVVFGGGTKLTVL"
  Human P-cadherin-Fc binding (OD450): 1.71
- binder: "anti-P-cadherin scFv 153 alanine-mutant L3.11-Ala (scFv, V domains shown, scFv on phage) VH: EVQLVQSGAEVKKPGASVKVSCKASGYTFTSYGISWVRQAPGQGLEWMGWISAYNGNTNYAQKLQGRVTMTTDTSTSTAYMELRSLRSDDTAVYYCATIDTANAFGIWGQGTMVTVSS VL: QSVLTQPPSVSAAPGQKVTISCSGSSSNIGNNYVSWYQQLPGTAPKLLIYDNNKRPSGIPDRFSGSKSGTSATLGITGLQTGDEADYYCGTWDSSLSGVAFGGGTKLTVL"
  Human P-cadherin-Fc binding (OD450): 1.38
